// reported C3b CFA: Time (min.) for 50% cleavage of C3B α′-chain per item
Molecular target: C3b (UniProt P01024)
Sequence (P01024 23-667 limits assumed, chain 1 of 2): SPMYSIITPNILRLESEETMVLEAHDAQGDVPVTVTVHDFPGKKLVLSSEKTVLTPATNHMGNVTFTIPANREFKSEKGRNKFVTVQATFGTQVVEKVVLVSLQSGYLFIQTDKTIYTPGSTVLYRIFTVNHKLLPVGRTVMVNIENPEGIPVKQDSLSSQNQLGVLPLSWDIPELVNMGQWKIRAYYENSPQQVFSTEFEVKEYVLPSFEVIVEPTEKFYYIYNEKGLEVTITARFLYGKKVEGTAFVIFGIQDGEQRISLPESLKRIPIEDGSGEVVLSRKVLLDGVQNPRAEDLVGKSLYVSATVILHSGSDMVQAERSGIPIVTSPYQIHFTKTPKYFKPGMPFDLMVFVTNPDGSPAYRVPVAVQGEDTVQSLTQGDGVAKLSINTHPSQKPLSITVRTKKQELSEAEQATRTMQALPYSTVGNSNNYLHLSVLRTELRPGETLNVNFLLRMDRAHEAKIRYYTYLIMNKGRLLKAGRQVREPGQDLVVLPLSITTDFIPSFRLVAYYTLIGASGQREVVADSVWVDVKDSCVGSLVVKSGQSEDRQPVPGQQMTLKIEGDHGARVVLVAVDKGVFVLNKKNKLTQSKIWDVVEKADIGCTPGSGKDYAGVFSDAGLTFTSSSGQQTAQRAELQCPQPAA
Sequence (P01024 749-1663 limits assumed, chain 2 of 2): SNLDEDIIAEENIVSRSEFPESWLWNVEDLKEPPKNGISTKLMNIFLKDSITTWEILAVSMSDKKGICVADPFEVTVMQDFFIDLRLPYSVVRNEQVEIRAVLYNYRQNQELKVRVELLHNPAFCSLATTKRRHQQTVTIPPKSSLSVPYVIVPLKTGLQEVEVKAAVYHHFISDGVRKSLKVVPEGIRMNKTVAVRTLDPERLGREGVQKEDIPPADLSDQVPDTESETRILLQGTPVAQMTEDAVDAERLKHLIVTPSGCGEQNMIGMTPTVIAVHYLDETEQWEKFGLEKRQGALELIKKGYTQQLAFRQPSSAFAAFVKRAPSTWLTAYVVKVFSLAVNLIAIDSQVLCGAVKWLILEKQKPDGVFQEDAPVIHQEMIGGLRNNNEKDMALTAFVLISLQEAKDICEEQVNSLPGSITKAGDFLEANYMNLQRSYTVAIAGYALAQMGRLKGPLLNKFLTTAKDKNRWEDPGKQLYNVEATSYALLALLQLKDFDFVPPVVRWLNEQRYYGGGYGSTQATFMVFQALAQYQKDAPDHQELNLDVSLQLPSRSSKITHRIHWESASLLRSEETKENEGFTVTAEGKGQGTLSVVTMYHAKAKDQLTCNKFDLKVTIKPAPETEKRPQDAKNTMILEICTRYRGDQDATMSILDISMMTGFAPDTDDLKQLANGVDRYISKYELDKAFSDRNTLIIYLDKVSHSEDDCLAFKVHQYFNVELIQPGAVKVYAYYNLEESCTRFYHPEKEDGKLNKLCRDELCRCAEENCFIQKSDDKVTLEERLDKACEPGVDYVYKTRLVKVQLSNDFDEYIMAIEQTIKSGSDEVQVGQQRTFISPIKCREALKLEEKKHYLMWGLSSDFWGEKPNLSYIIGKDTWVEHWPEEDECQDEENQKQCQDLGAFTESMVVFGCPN
Assay: cell-based or functional assay
Write the answer as a number in min, unit excluded.

Query :: Query (binder): D2D3M3M4 (F197I) (protein) CEVPTRLNSASLKQPYITQNYFPVGTVVEYECRPGYRREPSLSPKLTCLQNLKWSTAVEFCKKKSCPNPGEIRNGQIDVPGGILFGATISFSCNTGYKLIGSTSSFCLISGSSVQWSDPLPECREIYCTPPPKIKNGKHTFSEVEVFEYLDAVTYSCDPAPGPDPFSLIGESTIYCGDNSVWSRAAPECKVVKCRFPVVENGKQISGFGKKFYYKATVMFECDKGFYLDGSDTIVCDSNSTWDPPVPKCLKVL ; field requested: C3b CFA: Time (min.) for 50% cleavage of C3B α′-chain
Result :: 49.8

New cases:
Query :: Query (binder): D2D3M3M4 (Multi-1) (protein) CEVPTRLNSASLKQPYITQNYFPVGTVVEYECRPGYRREPSLSPKLTCLQNLKWSTAVEFCKKKSCPNPGEIRNGQIDVPGGILFGATISFSCNTGYKLFGSTSSFCLISGSSVQWSDPLPICEKVLCTPPPKIKNGKHTFSEVEVFEYLDAVTYSCDPAPGPDPFSLIGESTIYCGDNSVWSRAAPECKVVKCRFPVVENGKQISGFGKKFYYKATVMFECDKGFYLDGSDTIVCDSNSTWDPPVPKCLKVL ; field requested: C3b CFA: Time (min.) for 50% cleavage of C3B α′-chain
Result :: 27.3

Query :: Query (binder): D2D3M3M4 (S199K) (protein) CEVPTRLNSASLKQPYITQNYFPVGTVVEYECRPGYRREPSLSPKLTCLQNLKWSTAVEFCKKKSCPNPGEIRNGQIDVPGGILFGATISFSCNTGYKLFGKTSSFCLISGSSVQWSDPLPECREIYCTPPPKIKNGKHTFSEVEVFEYLDAVTYSCDPAPGPDPFSLIGESTIYCGDNSVWSRAAPECKVVKCRFPVVENGKQISGFGKKFYYKATVMFECDKGFYLDGSDTIVCDSNSTWDPPVPKCLKVL ; field requested: C3b CFA: Time (min.) for 50% cleavage of C3B α′-chain
Result :: 18.9

Query :: Query (binder): D2D3M3M4 (T192E) (protein) CEVPTRLNSASLKQPYITQNYFPVGTVVEYECRPGYRREPSLSPKLTCLQNLKWSTAVEFCKKKSCPNPGEIRNGQIDVPGGILFGATISFSCNEGYKLFGSTSSFCLISGSSVQWSDPLPECREIYCTPPPKIKNGKHTFSEVEVFEYLDAVTYSCDPAPGPDPFSLIGESTIYCGDNSVWSRAAPECKVVKCRFPVVENGKQISGFGKKFYYKATVMFECDKGFYLDGSDTIVCDSNSTWDPPVPKCLKVL ; field requested: C3b CFA: Time (min.) for 50% cleavage of C3B α′-chain
Result :: 74.3

Source listed as patent US20220195012A1.
